Reference source for all entries: PubChem BioAssay (NCI)

Give measured growth inhibition for each item. Keep answers brief.
Test: NCI Yeast Anticancer Drug Screen. Data for the cln2 rad14 strain (AID 165);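 note: 0% = growth equal to vehicle treated cultures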
Conditions: S. cerevisiae cln2 rad14 strain, at 50.0 µM, stronger effect = higher value
Method: Growth inhibition of yeast strains with defined genetic alterations is measured as a screen for potential anti-cancer activity. Selected strains with alterations in DNA damage repair or cell cycle control were exposed to compounds and growth inhibition was measured relative to vehicle treated controls. The strain used in this assay is cln2 rad14
Compounds without any hit were thinned out: in the full panel of roughly 79,000, 15% have a hit.
Numbers only, in %.

Examples from the recorded data:
Exercise: Can you share its growth inhibition? I mean this compound: CC(=O)Nc1ccc(/C=C2/C(=O)ON=C2C)cc1
Key: 11.8

Exercise: Lookup CN(C)S(=O)(=O)c1ccc(NC(=O)OC2CCCC2)cc1
Key: 33.2

Exercise: Lookup C/C(CC(=O)CCC(=O)Nc1cccc(C(F)(F)F)c1)=N\NC(=O)NN
Key: 1.95

Exercise: Lookup O=c1[nH][nH]c(=O)c2nc3c(nc12)c1nc2c(=O)[nH][nH]c(=O)c2nc1c1nc2c(=O)[nH][nH]c(=O)c2nc31
Key: -2.55

Exercise: Lookup CCCCC(CC)CC#N (stereo unspecified)
Key: 6.05

Answer for every listed entry: what is its growth inhibition? The entries follow.
1. O=C1C2=C(Nc3cc(Cl)ccc3N2)OC1c1ccc(C2OC3=C(Nc4ccc(Cl)cc4N3)C2=O)cc1 (stereo unspecified)
2. COc1ccc(C(C#N)NNC(=O)c2ccccc2O)cc1OC (stereo unspecified)
3. NC(=O)CC(Nc1ncc2c(n1)-c1ccccc1OC2)C(=O)O (stereo unspecified)
4. CC1=CC2=C(OCO1)C(=O)c1ccccc1C2=O
5. CCCC(P(=O)(c1ccccc1)c1ccccc1)[P+](CC)(c1ccccc1)c1ccccc1 (stereo unspecified)
6. CC(Sc1ccccc1)C(CO)(CO)[N+](=O)[O-] (stereo unspecified)
7. CC1(C)C(C(=O)/C=C2\Nc3ccccc3C2(C)C)=Nc2ccccc21

Key:
-33.5
4.2
9.95
-17.1
54.6
9.4
-26.7

Answer for every listed entry: what is its growth inhibition? The entries follow.
1. N#Cc1c(-c2ccccc2)cc(-c2ccc(Cl)cc2)[nH]c1=S
2. CCOP(=O)(Cc1c(C)cc(Br)c2ccccc12)OCC
3. COc1ccc2c(c1)s/c(=N/N)n2CCCS(=O)(=O)O
4. O=C(O)CC(SSCc1ccccc1)C(=O)O (stereo unspecified)

Key:
[20.5, -32.2, 23.1, -12.2]
